assay_protocol: Hemolytic assay
Type: cell-based
measurement_parameters: human, human red blood cells (erythrocyte suspension), 37°C, read-out: Hemolysis of hRBCs
I'd be grateful if you could share measured hemolysis at 1 h, 500 μg/mL for these entries.

smiles_notation	hemolysis at 1 h, 500 μg/mL
Clc1ccc(OCc2cn(Cc3ccccc3)nn2)c2ncccc12	26.8%

Shift focus to the following entry.
For the molecule shown here, "c1ccc(Cn2cc(COc3cccc4cccnc34)nn2)cc1" , give the reported hemolysis at 1 h, 500 μg/mL. 4.76%

* * *

Assignment: determine reported IC50 for the given molecules.
Tested on: C. albicans D31 (FLC-sensitive clinical isolate)
assay_protocol: Broth dilution IC50 determination
Assay type: cell-based
measurement_parameters: Candida albicans, 24 h; read-out: Anti-Candida Activity (IC50± S.D.) C. albicans D31
Numbers only, in µg/mL.

Please supply IC50 for each of the following items, keeping them in order.
1. c1ccc(Cn2cc(COc3cccc4ccccc34)nn2)cc1 [Compound 3c]
2. c1ccc(Cn2cc(COc3cccc4cccnc34)nn2)cc1 [Compound 3a]
3. Clc1ccc(OCc2cn(Cc3ccccc3)nn2)c2ncccc12 [Compound 3b]

119
3.3
41.5

* * *

Would you mind telling me the reported IC50 of each entry?
System: C. albicans D27 (FLC-sensitive clinical isolate)
assay_protocol: Broth dilution IC50 determination
Format: cell-based
measurement_parameters: Candida albicans, 24 h; read-out: Anti-Candida Activity (IC50± S.D.) C. albicans D27
One number for each entry, in µg/mL.

// known answers, use as guide
smiles_notation	IC50, µg/mL
Clc1ccc(OCc2cn(Cc3ccccc3)nn2)c2ncccc12	33.7
c1ccc(Cn2cc(COc3cccc4ccccc34)nn2)cc1	43.7

Switching to the query record.
Form field: reported IC50 of "c1ccc(Cn2cc(COc3cccc4cccnc34)nn2)cc1" 1.9

* * *

assay_protocol: Cell proliferation assay (cytotoxicity)
Type: cell-based
measurement_parameters: monkey, Vero cells (monkey kidney fibroblasts), positive control
endpoint_name: IC50 at 48 h

Give the measured IC50 at 48 h of COc1cccc2c1C(=O)c1c(O)c3c(c(O)c1C2=O)C[C@@](O)(C(=O)CO)C[C@@H]3O[C@H]1C[C@H](N)[C@H](O)[C@H](C)O1 [Doxorubicin] . > 5 µg/mL

* * *

assay_protocol: Hemolytic assay
Assay type: cell-based
measurement_parameters: human, 37°C, read-out: Hemolysis of hRBCs
Experimental: Human blood from a healthy individual was collected in tubes containing EDTA as anti-coagulant. The erythrocytes were harvested by centrifugation for 10 min at 2000 rpm and 20°C, washed three times in PBS. To the pellet, PBS was added to yield a 10% (v/v) erythrocytes/PBS suspension. The 10% suspension was then diluted 1:10 in PBS. […] From the supernatant, 150 μL was transferred to a flat-bottomed microtiter plate (Tarson), and the absorbance was measured spectrophotometrically at 450 nm. […]
endpoint_name: hemolysis at 1 h, 500 μg/mL
Respond with a number, then the unit of measure.

Given the entry OC(Cn1cncn1)(Cn1cncn1)c1ccc(F)cc1F [FLC, Fluconazole, reference compound] , report its measured hemolysis at 1 h, 500 μg/mL. 68.6%

* * *

Test system: C. glabrata ATCC 90030
assay_protocol: Broth dilution IC50 determination
Format: cell-based
measurement_parameters: Nakaseomyces glabratus, ATCC90030, SD broth, 37°C, 24 h, OD 600 nm, read-out: Anti-Candida Activity (IC50± S.D.) C. glabrata ATCC90030
endpoint_name: IC50 (µg/mL)
Give bare numbers, in µg/mL.

Past entries and their recorded results:
compound	tgt	IC50 (µg/mL)
c1ccc(Cn2cc(COc3cccc4ccccc34)nn2)cc1	C. glabrata ATCC 90030	107
Clc1ccc(OCc2cn(Cc3ccccc3)nn2)c2ncccc12	C. glabrata ATCC 90030	73.3
OC(Cn1cncn1)(Cn1cncn1)c1ccc(F)cc1F [FLC, Fluconazole, reference compound]	C. glabrata ATCC 90030	7.81

# context switch: different compound, same IC50
Query: IC50; subject: "c1ccc(Cn2cc(COc3cccc4cccnc34)nn2)cc1" 12
